B1: KCNAB2 (parent)
chain: IPPYSRASLKGYQWLKDKILSEEG

variants of: B1; assay: protein stability index of a GFP-peptide fusion (GPS, HEK-293T) (PSI 1-6); higher = more stable; settings: c terminus: a fixed tail appended;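 further: lentivirally expressed fusions sorted by FACS into six bins by GFP to DsRed ratio, PSI derived from sequencing read proportions per bin multiplied by bin number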
Each record gets a class by protein stability index: lower level: < 2; middle level: ≥ 2 and < 3; upper level: ≥ 3

{"columns": ["record_sequence", "assigned_category"],
 "data": [
  ["IPPYSRASLKGYQWLSDKILSEEG [K16S]", "middle level"]
]}

Sort ISPYSRASLKGYQWLKDKILSEEG [P2S] into one of the categories.
middle level

Sort IPPYSRASLKGYQWLKDKALSEEG [I19A] into one of the categories.
middle level

Sort IPPYPRASLKGYQWLKDKILSEEG [S5P] into one of the categories.
upper level
